# System: MILI (PIWIL2) piRISC loaded with L1MC piRNA (26 nt);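 also: 1 nM active piRISC with 0.1 nM target library at 33 °C single turnover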
# PROCEDURE TEXT: pre-steady-state target cleavage rate (min^-1); guide: L1MC piRNA 5'p-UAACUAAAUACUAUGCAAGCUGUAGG; higher = faster piRNA-guided slicing of the target
# CONDITION DETAILS: auxiliary factor: 500 nM mouse GTSF1
Here the recorded pre-steady-state target cleavage rate is given for each entry.

Worked set:
UCCUGGAACAGCUUGCAAUGUAUUUAGUUA :: 0.0726
UCCUGGAUCUGCUUGGAUAGUAUUUAGUUA :: 0.165
UCCUGCUACAGCUUGGAUAGUAUUUAGAUA :: 0.0476
UCCUCCUACAGCUUGCAUAGUAUUUAGUUU [g2:g26:cont:t1U] :: 0.35
UCCUGGAUCAGCUUGCAUAGUAUUAUGAAA :: 0.0664
UCCUGGAUGUCCUUGCUUUGUAUUUAGUUA :: 0.00984
UCCUCCUUCAGCUUGCAUAGUAUUUUCAAA :: 0.115
UCCUGGAUGUCCUUGCAUACUUUUUAGUUA :: 0.00626

Documented pre-steady-state target cleavage rate of "UCCUCCUCCAGCUUGCAUAGUAUUUAGUUA" : 0.265

The recorded pre-steady-state target cleavage rate for "UCCUGGAUCAGCUUGCAUAGUAUUUGUUA" is 0.145

Sure, the documented pre-steady-state target cleavage rate for "UCCUGGAACAGCUUGCUUAGUUUUUAGUUA" is 0.0579

// "UCCUGGUACACUUGCAUAGUAUUUAGUUA" : pre-steady-state target cleavage rate value = 0.188

====

# Test system: MILI (PIWIL2) piRISC loaded with L1MC piRNA (26 nt);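 also: 1 nM active piRISC with 0.1 nM target library at 33 °C single turnover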
# PROCEDURE TEXT: pre-steady-state target cleavage rate (min^-1); guide: L1MC piRNA 5'p-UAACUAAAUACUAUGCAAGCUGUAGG; higher = faster piRNA-guided slicing of the target
# CONDITION DETAILS: auxiliary factor: none (no GTSF1)
Listed here are sequences together with their documented pre-steady-state target cleavage rate.
Lab note: record the figure alone, no unit after it.

UCCUGGAUCAGCUUGCAAAGUAUUAAGUUA :: 0.00698
UCCUGGAACAGCUUUCAUAGUAUUUAGUUA :: 0.00688

Please find the next sequence below.
Entry "UCCUGGAACAGCUUGUAUAGUAUUUAGUUA" : pre-steady-state target cleavage rate on MILI (PIWIL2) piRISC loaded with L1MC piRNA (26 nt) = 0.00685

====

# System: MILI (PIWIL2) piRISC loaded with piRNA #1 (26 nt);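 also: 1 nM active piRISC with 0.1 nM target library at 33 °C single turnover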
# PROCEDURE TEXT: pre-steady-state target cleavage rate (min^-1); guide: piRNA #1 5'p-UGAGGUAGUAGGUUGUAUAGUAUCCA; higher = faster piRNA-guided slicing of the target
# CONDITION DETAILS: auxiliary factor: 500 nM mouse GTSF1
ENDPOINT NAME: pre-steady-state target cleavage rate
Answer with a number only.

GGAGACCAUACUUUACAACGUACUACCUCA :: 0.0198
GGAGAGGAUACUAUACAACCUACAAGCUCA :: 0.00476
GGAGACGAUAGUAUACAAGCUACUACCUCA :: 0.176
GGAGUGGAUUACUAUACAACCUACUACCUCA :: 0.154
GGAGACCUAUCUUAUCAACCUACUACCUCA :: 0.0106
GGAGAGGAUACUAUACAAGCUACUACGUCA :: 0.19
GGAGACGAUACUAUACAACCGACUACCUCA :: 0.00402
GGAGACCAUACUAUACAACGUAGUACCUCA :: 0.0119

// recorded pre-steady-state target cleavage rate for "GGAGUGGAUACUAUACAACGUACUUCCUCA" : 0.0153

====

# System: MILI (PIWIL2) piRISC loaded with L1MC piRNA (26 nt);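 also: 1 nM active piRISC with 0.1 nM target library at 33 °C single turnover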
# PROCEDURE TEXT: pre-steady-state target cleavage rate (min^-1); guide: L1MC piRNA 5'p-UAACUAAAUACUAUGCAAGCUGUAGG; higher = faster piRNA-guided slicing of the target
# CONDITION DETAILS: auxiliary factor: 500 nM mouse GTSF1
The sequences listed here are annotated with their pre-steady-state target cleavage rate.
Please state the value as a number alone, without comment.

A selection of reference data follows.
UCCUGGUACAGCAUGGAUAGUAUUUAGUUA :: 0.197
UCCUGGUACAGCUUGCAUAGAUAUUAGUUA :: 0.0155
UCCUGGAUGAGCUUGCAUAGUUUUUAGUAA :: 0.0181
UCCUGCUACAGCUUGCUUAGUAAUUAGUUA :: 0.18

Reported pre-steady-state target cleavage rate for "UCCUGGAUGUCCUUGCAUAGUUUUUAGUAA" was 0.013

So, "UCCUCCUACAGCUUGCAUAGUUUUUACAAA" ? Its pre-steady-state target cleavage rate was 0.0506

So, "UCCUGGUACAGCAUGCAUAGUAUUAAGUUA" ? Its pre-steady-state target cleavage rate was 0.292

Briefly, pre-steady-state target cleavage rate measured for "UCCUCCUACAGCUAGCAUAGUAUUUAGAAA" : 0.113

Entry "UCCUGGAUCAUCUUGCAUAGUAUUUAGUUA" — recorded pre-steady-state target cleavage rate = 0.241

Measured pre-steady-state target cleavage rate of "UCCUGCUACAGCUUGCAUAGUAUAAAGUUA" : 0.198

====

# Tested on: MILI (PIWIL2) piRISC loaded with piRNA #1 (26 nt);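 also: 1 nM active piRISC with 0.1 nM target library at 33 °C single turnover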
# PROCEDURE TEXT: pre-steady-state target cleavage rate (min^-1); guide: piRNA #1 5'p-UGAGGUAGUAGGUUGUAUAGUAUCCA; higher = faster piRNA-guided slicing of the target
# CONDITION DETAILS: auxiliary factor: 500 nM mouse GTSF1
pre-steady-state target cleavage rate values by entry

GGAGACCUAUGAUAACUUGCUACUACCUCA :: < 0.0001
GGAGACCUAUGAUAUGUUCCUACUACCUCU [g2:g12:cont:t1U] :: < 0.0001
GGAGACCUAUGAUAUCUACCUACUACGUCA :: < 0.0001
GGAGACCUAUGAUAUGUUCCUACUAGCUCA :: < 0.0001
GGAGACCUUACUAUUCAACCUACUACCUGA :: 0.0942

Readout pre-steady-state target cleavage rate for "GGAGACCUUACUAUACAACGUACUACCUCA" , test system MILI (PIWIL2) piRISC loaded with piRNA #1 (26 nt), was 0.0177

Noted pre-steady-state target cleavage rate for "GGAGACCUUACUCAUACAACCUACUACCUCA" , tested on MILI (PIWIL2) piRISC loaded with piRNA #1 (26 nt): 0.122

====

We begin with a simple list: items and their reported pre-steady-state target cleavage rate.
# Test system: MILI (PIWIL2) piRISC loaded with piRNA #1 (26 nt);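 also: 1 nM active piRISC with 0.1 nM target library at 33 °C single turnover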
# PROCEDURE TEXT: pre-steady-state target cleavage rate (min^-1); guide: piRNA #1 5'p-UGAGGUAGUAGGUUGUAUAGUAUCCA; higher = faster piRNA-guided slicing of the target
# CONDITION DETAILS: auxiliary factor: 500 nM mouse GTSF1
Just the number, please.

// worked examples, pre-steady-state target cleavage rate included
GGAGUGGAUACUAUAGAACCUACUAGCUCA :: 0.00733
GGAGACCAUGACUAUACAACCUACUACCUCA :: 0.142

Looking up "GGAGACGUUACUAAACAACCUACUACCUCA" , I see its pre-steady-state target cleavage rate listed as 0.153

Given item "GGAGUGGAUACUUUACAACCUACUACCUCA" , the value recorded as its pre-steady-state target cleavage rate is 0.174

For this sequence ( "GGAGACCAUACUAUACAUGCUACUACCUCA" ), measured pre-steady-state target cleavage rate is 0.0704

# pre-steady-state target cleavage rate of "GGAGACGAUAGUAAACAACCUACUACCUCA" = 0.134

# pre-steady-state target cleavage rate (sequence: "GGAGUGGAUACAAUAGAACCUACUACCUCA" ) is 0.163

The sequence listed as "GGAGACGAUACUAUACUAGCUACUACCUCA" shows pre-steady-state target cleavage rate equal to 0.198

Measured pre-steady-state target cleavage rate of "GGAGACCAUAGAAUACAACCUACUACCUCA" : 0.0281

Note to self: pre-steady-state target cleavage rate recorded for "GGAGACCUAACUAUACAACCUACUACUUCA" was 0.084

====

# Test system: EfPiwi piRISC loaded with piRNA #1 (26 nt)
# PROCEDURE TEXT: pre-steady-state target cleavage rate (min^-1); auxiliary factor: 500 nM Ephydatia muelleri Gtsf1; guide: piRNA #1 5'p-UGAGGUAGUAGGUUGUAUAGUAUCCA; MIWI and MILI are mouse PIWI proteins and EfPiwi is from a freshwater sponge; tags in brackets are library labels; higher = faster piRNA-guided slicing of the target
ENDPOINT NAME: pre-steady-state target cleavage rate
Reply with just the number.

GGAGUGGAUUCUAUACUACCUACUACCUCA :: 0.00505

Log: EfPiwi piRISC loaded with piRNA #1 (26 nt), sequence "GGAGACCUAACUAUACAACCUAGUAGCUCA" , pre-steady-state target cleavage rate = 0.00484

The measured pre-steady-state target cleavage rate that "GGAGUCGAUACUAUACAACCUACUACGUCA" showed for EfPiwi piRISC loaded with piRNA #1 (26 nt) is 0.00643

Log: EfPiwi piRISC loaded with piRNA #1 (26 nt), sequence "GGAGAGGAUAGUAUACAACCUACAACCUCA" , pre-steady-state target cleavage rate = 0.00249

Bench note, EfPiwi piRISC loaded with piRNA #1 (26 nt): "GGAGAGGAAACUAUACAACCUUCUACCUCA" , pre-steady-state target cleavage rate reads 0.00297

Record "GGAGACGAUACUAUACAAGCUUCUACCUCA" / EfPiwi piRISC loaded with piRNA #1 (26 nt), pre-steady-state target cleavage rate recorded as 0.0034

For the sequence "GGAGACCAUACUAUACAAGGUACUACCUCA" , the measured pre-steady-state target cleavage rate on EfPiwi piRISC loaded with piRNA #1 (26 nt) was 0.00335

Reference source: the supplement of paper PMC10338343
